Ref: patent US20200369772A1

- test-target: T1, mouse PD-L2 (full-length, on cells) (mouse, UniProt Q9WUL5 20-247)
- T1 construct: whole, on cells; HEK293 cells stably expressing full-length mouse PD-L2
- T1 sequence (looked up): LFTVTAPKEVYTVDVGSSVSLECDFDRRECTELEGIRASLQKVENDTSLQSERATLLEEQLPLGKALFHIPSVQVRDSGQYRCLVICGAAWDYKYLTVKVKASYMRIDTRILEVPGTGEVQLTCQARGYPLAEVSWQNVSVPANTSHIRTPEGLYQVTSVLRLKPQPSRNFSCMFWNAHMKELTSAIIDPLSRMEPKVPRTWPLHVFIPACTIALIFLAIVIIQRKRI
- assay-procedure: FACS on HEK293T cells expressing mouse PD-L2

# binder, binding result
measured = [
    ("19B3-B3 N92Q.LC.M23K.M63L.HC (antibody, V domains shown, Optimized variant of 19B3-B3) VH: QVQLVQSGAEVKKPGASVKVSCKASGYTFTNYAIHWVRQAPGQRLEWMGWINTGLGKPKYSQLFQDRVTITRDTSASTASMELSGLRSDDTAVYYCARVGWELYFDYWGQGTLVTVSS VL: DIQMTQSPSTLSASVGDRVTITCRASQSISSLLAWYQQKPGKAPKLLIYKASSLESGVPSRFSGSGSGTEFTLTISSLQPDDFATYFCQQYQSYWTFGQGTKVEIK", "no binding"),
    ("10A9-D2 N31Q.LC (antibody, V domains shown, Optimized variant of 10A9-D2) VH: QVQLQESGPGLVKPSETLSLTCAVSGGSISSSYWWSWVRQPPGKGLEWVGEVFHVGVTNYNPSLKSRVTISVDKSKNQFSLKLTSVTAADTAVYYCARVTGTTGYYHGLDVWGQGTTVTVFS VL: DIQMTQSPSSLSASVGDRVTITCRASQGIRQDLGWYQQKPGKVPKRLIYAASSLQSGIPSRFSGSGSGTEFTLTISSLQPEDFATYYCLQHNNYPRTFGQGTKVEIK", "no binding"),
]
